system: LG0703-F948-PDC complex spheroid viability; test: Anticancer human tumor LG0703-F948-PDC patient-derived lung adenocarcinoma cell line growth inhibition [RAS]; settings: second compound 0.1 µM; first compound 0.3 µM; active compounds read low;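 also: spheroids exposed to agents for 7 days; 100% = DMSO vehicle wells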
Overview of reported viability, T/C across a group of compounds:

{"columns": ["compound", "viability, T/C"],
 "data": [
  ["CCc1c2c(nc3ccc(O)cc13)-c1cc3c(c(=O)n1C2)COC(=O)[C@]3(O)CC + C#Cc1c(F)ccc2cc(O)cc(-c3ncc4c(N5CC6CCC(C5)N6)nc(OCC56CCCN5CC(F)C6)nc4c3F)c12", "20.1%"],
  ["CC1(C)CCC(Nc2ncc(C(F)(F)F)c(-c3c[nH]c4c(P(C)(C)=O)c(C#N)ccc34)n2)CN1 (centres undefined) + C#Cc1c(F)ccc2cc(O)cc(-c3ncc4c(N5CC6CCC(C5)N6)nc(OCC56CCCN5CC(F)C6)nc4c3F)c12", "66.3%"],
  ["CC1(C)CCC(Nc2ncc(C(F)(F)F)c(-c3c[nH]c4c(P(C)(C)=O)c(C#N)ccc34)n2)CN1 (centres undefined) + C=CC(=O)N1CCN(c2nc(OCC3CCCN3C)nc3c(F)c(-c4nc(N)cc(C)c4C(F)(F)F)c(Cl)cc23)C(C)C1", "65.3%"]
]}

Please examine the following record next.
Enquiry: Form field: reported viability, T/C of CCc1c2c(nc3ccc(O)cc13)-c1cc3c(c(=O)n1C2)COC(=O)[C@]3(O)CC + C=CC(=O)N1CCN(c2nc(OCC3CCCN3C)nc3c(F)c(-c4nc(N)cc(C)c4C(F)(F)F)c(Cl)cc23)C(C)C1
Return: 21.2%
